target: Integrin alpha-IIb/beta-3 (Homo sapiens, UniProt P05106+P08514); experiment: Antagonist activity at GP2b/GP3a receptor in human platelet rich plasma assessed as inhibition of ADP-induced platelet aggregation at 50 uM preincubated for 1 min followed by ADP addition by aggregometric method relative to control
measured_endpoint: inhibition (%)

Below, each entry is followed by its recorded inhibition result.
>  <compound>
N=C(N)c1ccc(COc2ccc3cc(CC(NS(=O)(=O)c4ccc(Br)cc4)C(=O)O)ccc3c2)cc1 (racemic)

>  <recorded_result>
50.2

$$$$
>  <compound>
COc1ccc(C(=O)NC(Cc2ccc3cc(OCc4ccc(C(=N)N)cc4)ccc3c2)C(=O)O)cc1 (racemic)

>  <recorded_result>
32.4

$$$$

1. O=C(O)C(Cc1ccc2cc(OCCCN3CCNCC3)ccc2c1)NS(=O)(=O)c1ccc(Br)cc1 (racemic)
2. N=C(N)c1ccc(COc2ccc3cc(CC(NS(=O)(=O)c4ccc([N+](=O)[O-])cc4)C(=O)O)ccc3c2)cc1 (racemic)
(Q) # return whichever of 1 and 2 has the smaller inhibition Pick one and reply with its label.
(A) 2

a. O=C(O)C(Cc1ccc2cc(OCCCCN3CCNCC3)ccc2c1)NS(=O)(=O)c1ccc(Br)cc1 (racemic)
b. O=C(O)C(Cc1c[nH]c2ccc(OCCCCC3CCNCC3)cc12)NS(=O)(=O)c1ccc(Br)cc1 (centres undefined)
(Q) Between the entries labeled a and b , whose measured inhibition is lower? Write the label of whichever entry you select.
(A) b
(b: 38.1%, a: 91.2%)

P. COc1ccc(S(=O)(=O)NC(Cc2ccc3cc(OCc4ccc(C(=N)N)cc4)ccc3c2)C(=O)O)cc1 (racemic)
Q. N=C(N)c1ccc(COc2ccc3cc(CC(NC(=O)c4ccccc4)C(=O)O)ccc3c2)cc1 (racemic)
R. O=C(O)C(Cc1ccc2cc(OCCN3CCNCC3)ccc2c1)NS(=O)(=O)c1ccc(Br)cc1 (racemic)
(Q) # desc sort on inhibition across 3 compounds Labels, ranked as asked.
(A) R, Q, P
(R: 97.3%, Q: 49.4%, P: 21.5%)

1. N=C(N)c1ccc(COc2ccc3cc(CC(NC(=O)c4ccc(F)cc4)C(=O)O)ccc3c2)cc1 (racemic)
2. N=C(N)c1ccc(COc2ccc3cc(CC(NC(=O)c4cccc(F)c4)C(=O)O)ccc3c2)cc1 (racemic)
(Q) When their inhibition values are compared, which is larger, 1 or 2 ? // respond with label for picked entry
(A) 2

* * *

biological target: Integrin alpha-IIb/beta-3 (Homo sapiens, UniProt P05106+P08514); experiment: Displacement of fibrinogen from human platelet GP2b/GP3a receptor after 2 hrs by ELISA
pIC50: −log10 of the molar value.
measured_endpoint: pIC50

I. Cl.O=C(O)C(Cc1ccc2cc(OCCCN3CCNCC3)ccc2c1)NS(=O)(=O)c1ccccc1 (racemic)
II. N=C(N)c1ccc(COc2ccc3cc(CC(NS(=O)(=O)c4ccccc4)C(=O)O)ccc3c2)cc1 (racemic)
(Q) Lab note: record which item had the higher pIC50, I or II . // output: label of the selected item
(A) I

* * *

target: Integrin alpha-IIb/beta-3 (Homo sapiens, UniProt P05106+P08514); assay: Antagonist activity at GP2b/GP3a receptor in human platelet rich plasma assessed as inhibition of ADP-induced platelet aggregation at 50 uM preincubated for 1 min followed by ADP addition by aggregometric method relative to control
Recorded inhibition for the following compounds

Example compounds with recorded inhibition:
>  <compound>
CCCC(=O)NC(Cc1ccc2cc(OCc3ccc(C(=N)N)cc3)ccc2c1)C(=O)O (racemic)

>  <tested_on>
Integrin alpha-IIb/beta-3 (Homo sapiens, UniProt P05106+P08514)

>  <recorded_result>
> 99.5%

$$$$
>  <compound>
CCCCS(=O)(=O)NC(Cc1ccc2cc(OCc3ccc(C(=N)N)cc3)ccc2c1)C(=O)O (racemic)

>  <tested_on>
Integrin alpha-IIb/beta-3 (Homo sapiens, UniProt P05106+P08514)

>  <recorded_result>
> 99.5%

$$$$
>  <compound>
O=C(O)C(Cc1ccc2cc(OCC3CCNCC3)ccc2c1)NS(=O)(=O)c1ccc(Br)cc1 (racemic)

>  <tested_on>
Integrin alpha-IIb/beta-3 (Homo sapiens, UniProt P05106+P08514)

>  <recorded_result>
< 5%

$$$$
>  <compound>
O=C(O)C(Cc1ccc2cc(OCCC3CCNCC3)ccc2c1)NS(=O)(=O)c1ccc(Br)cc1 (racemic)

>  <tested_on>
Integrin alpha-IIb/beta-3 (Homo sapiens, UniProt P05106+P08514)

>  <recorded_result>
< 5%

$$$$
>  <compound>
Cc1ccc(S(=O)(=O)NC(Cc2ccc3cc(OCc4ccc(C(=N)N)cc4)ccc3c2)C(=O)O)cc1 (racemic)

>  <tested_on>
Integrin alpha-IIb/beta-3 (Homo sapiens, UniProt P05106+P08514)

>  <recorded_result>
> 99.5%

$$$$
>  <compound>
N=C(N)c1ccc(COc2ccc3cc(CC(NC(=O)c4ccc([N+](=O)[O-])cc4)C(=O)O)ccc3c2)cc1 (racemic)

>  <tested_on>
Integrin alpha-IIb/beta-3 (Homo sapiens, UniProt P05106+P08514)

>  <recorded_result>
> 99.5%

$$$$
>  <compound>
N=C(N)c1ccc(COc2ccc3cc(CC(NS(=O)(=O)c4ccccc4)C(=O)O)ccc3c2)cc1 (racemic)

>  <tested_on>
Integrin alpha-IIb/beta-3 (Homo sapiens, UniProt P05106+P08514)

>  <recorded_result>
> 99.5%

$$$$

Would you kindly look at the next entry?
(Q) Answer with the recorded inhibition for the compound listed here: O=C(O)C(Cc1ccc2cc(OCCCC3CCNCC3)ccc2c1)NS(=O)(=O)c1ccc(Br)cc1 (racemic)
(A) < 5%
